# tgt: UniProt P56450
# Sequence (P56450 whole entry): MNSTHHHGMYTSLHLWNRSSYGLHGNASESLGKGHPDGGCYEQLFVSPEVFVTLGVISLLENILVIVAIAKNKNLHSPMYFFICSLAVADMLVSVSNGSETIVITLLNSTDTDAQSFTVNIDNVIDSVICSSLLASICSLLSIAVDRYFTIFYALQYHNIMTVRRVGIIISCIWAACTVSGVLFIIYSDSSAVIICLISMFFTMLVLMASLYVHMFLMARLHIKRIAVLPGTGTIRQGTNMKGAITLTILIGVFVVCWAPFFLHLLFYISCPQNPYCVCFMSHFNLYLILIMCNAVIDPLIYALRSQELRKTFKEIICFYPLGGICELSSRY
# protocol-description: cAMP based functional bioassay (CRE/β-galactosidase reporter), agonist activity at mMC4R
quantity: EC50 (µM)

Worked set:
smiles_string=CCC[C@@H]1CN([C@H](CC2CCCCC2)CN2CCC[C@H]2CN2C(=N)NC[C@H]2CC(C)C)C(=N)N1CCCC(C)C assay_value=6.7
smiles_string=CCC[C@@H]1CN([C@H](Cc2ccccc2)CN2CCC[C@H]2CN2C(=N)NC[C@H]2CC(C)C)C(=N)N1CC12CC3CC(CC(C3)C1)C2 assay_value=1.33

(I) CCC[C@@H]1CN([C@H](Cc2ccccc2)CN2CCC[C@H]2CN2C(=N)NC[C@H]2C(C)C)C(=N)N1CC12CC3CC(CC(C3)C1)C2
(II) CC(C)C[C@@H]1CNC(=N)N1C[C@@H]1CCCN1C[C@@H](Cc1ccccc1)N1C[C@@H](C(C)C)N(CC23CC4CC(CC(C4)C2)C3)C1=N
[Q] Please indicate which entry, I or II , has the lower recorded EC50 value. Reply with the label of the item you choose.
[A] I
